system: A. aerogenes
parameterMeasured: MIC (µg/mL)
Report only the number, with the unit µg/mL understood.

Worked examples follow.
> print(dat)
                                  cpdsmiles  parametermeasured  assayvalue
1       CN(C)C(=S)N1CN2CN(C/C=C\Cl)CN(C2)C1                MIC         500
2  CN(C(=O)N1CN2CN(C/C=C\Cl)CN(C2)C1)c1ccccc1                MIC         500
3  O=C(N1CN2CN(C/C=C\Cl)CN(C2)C1)N(c1ccccc1)c1ccccc1                MIC         500

Case CN(C)C(=O)N1CN2CN(C/C=C\Cl)CN(C2)C1 , A. aerogenes, MIC recorded as 100

MIC value, target or system A. aerogenes, for CCN(CC)C(=O)N1CN2CN(C/C=C\Cl)CN(C2)C1 : 100
